Assay system: T1, EsCas13d, nuclease-dead (Eubacterium siraeum, UniProt B0MS50, R295A;H300A;R849A;H854A)
T1 sequence: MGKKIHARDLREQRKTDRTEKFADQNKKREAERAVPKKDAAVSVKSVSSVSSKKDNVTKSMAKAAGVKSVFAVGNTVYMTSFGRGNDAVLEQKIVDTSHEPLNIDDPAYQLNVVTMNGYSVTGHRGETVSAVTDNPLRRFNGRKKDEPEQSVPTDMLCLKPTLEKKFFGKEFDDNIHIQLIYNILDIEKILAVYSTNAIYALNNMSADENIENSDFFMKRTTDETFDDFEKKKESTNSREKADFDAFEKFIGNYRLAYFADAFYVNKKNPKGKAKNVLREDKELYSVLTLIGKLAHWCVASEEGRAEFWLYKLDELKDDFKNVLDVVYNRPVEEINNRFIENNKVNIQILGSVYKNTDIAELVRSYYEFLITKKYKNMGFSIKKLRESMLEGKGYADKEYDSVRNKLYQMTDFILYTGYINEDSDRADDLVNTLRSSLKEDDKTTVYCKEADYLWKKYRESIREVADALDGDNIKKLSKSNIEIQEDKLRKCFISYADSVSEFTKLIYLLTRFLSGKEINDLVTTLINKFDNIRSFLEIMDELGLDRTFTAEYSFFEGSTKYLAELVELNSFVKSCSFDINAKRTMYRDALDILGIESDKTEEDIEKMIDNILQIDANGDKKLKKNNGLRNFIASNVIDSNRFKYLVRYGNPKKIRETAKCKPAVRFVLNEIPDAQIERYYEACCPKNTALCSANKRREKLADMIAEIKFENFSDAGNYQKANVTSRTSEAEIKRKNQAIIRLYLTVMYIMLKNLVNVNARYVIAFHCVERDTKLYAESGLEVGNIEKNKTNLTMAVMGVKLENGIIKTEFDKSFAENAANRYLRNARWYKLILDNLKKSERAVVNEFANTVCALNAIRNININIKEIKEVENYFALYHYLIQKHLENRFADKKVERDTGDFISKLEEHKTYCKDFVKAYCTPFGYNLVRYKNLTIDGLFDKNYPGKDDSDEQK
Run description: crRNA (strand 1, pre-loaded); Mg2+; 40 mM Tris-HCl pH 7.5, 150 mM NaCl, 6 mM MgCl2, 1 mM DTT, 0.1% Tween-20, 0.2 mg/ml BSA; 25 C; 10 min per concentration, then washed
Settings: tags: His6-TwinStrep-SUMO cleaved; N-terminal SNAP kept (SNAP-Surface 488); label: 3' end held by stalled T7 RNA polymerase
Binary label based on Kd with cut-off 20 nM: below gives met, not below gives not met.

# example entries with known answers
Binder	Assigned class
target 1 G15U,A16C (mixed) RNA 1: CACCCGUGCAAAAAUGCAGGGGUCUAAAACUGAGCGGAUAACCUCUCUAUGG RNA 2: GGGAAUGGAUCCACAUCUACGAAUUCGUACCAUAGCUAGGUUAUCCGCUCACCGAGAUCGGAAGAGCACACGU	not met
target 3 U2G,A5U (mixed) RNA 1: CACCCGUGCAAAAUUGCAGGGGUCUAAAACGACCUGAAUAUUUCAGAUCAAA RNA 2: GGGAAUGGAUCCACAUCUACGAAUUCGUUUUUGAUCUGAAAUAUUCUGGGCUGCAGAUCGGAAGAGCACACGU	met
target 3 insA 3' of 22,insG 3' of 5 (mixed) RNA 1: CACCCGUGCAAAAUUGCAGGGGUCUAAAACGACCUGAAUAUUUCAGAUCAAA RNA 2: GGGAAUGGAUCCACAUCUACGAAUUCGUUUAUUGAUCUGAAAUAUUCAGGGUCUGCAGAUCGGAAGAGCACACGU	not met
target 3 A12U,A18G (mixed) RNA 1: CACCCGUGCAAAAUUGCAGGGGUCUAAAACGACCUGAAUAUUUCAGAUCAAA RNA 2: GGGAAUGGAUCCACAUCUACGAAUUCGUUUUUGGUCUGAUAUAUUCAGGUCUGCAGAUCGGAAGAGCACACGU	not met
target 1 U8A,U11A (mixed) RNA 1: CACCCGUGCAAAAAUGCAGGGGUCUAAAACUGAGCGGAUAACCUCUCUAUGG RNA 2: GGGAAUGGAUCCACAUCUACGAAUUCGUACCAUAGAGAGGAUAACCGCUCACCGAGAUCGGAAGAGCACACGU	not met

Lab note: confirm whether the reported Kd for this binder is below 20 nM, equality not counting. binder: target 1 insA 3' of 19,insA 3' of 3 (mixed) RNA 1: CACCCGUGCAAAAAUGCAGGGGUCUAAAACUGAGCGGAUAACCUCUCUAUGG RNA 2: GGGAAUGGAUCCACAUCUACGAAUUCGUACCAUAAGAGAGGUUAUCCGCUACACCGAGAUCGGAAGAGCACACGU
met

Now consider target 2 MT 5'PFS AGA 3'PFS AAC (mixed) RNA 1: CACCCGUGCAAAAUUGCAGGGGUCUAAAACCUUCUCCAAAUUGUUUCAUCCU RNA 2: GGGAAUGGAUCCACAUCUACGAAUUCAGAAGGAUGAAACAAUUUGGAGAAGAACAGAUCGGAAGAGCACACGU and answer again.
met
